TEST_PARAMETERS: 308.15 K; 101.33 kPa; Liquid; Vibrating tube method
Reported mass density is given for each of the following compounds.
Please state the figure in kg/m3; there is no need to write the unit.

CNC=O [N-methylformamide]	990.3
CN(C)C=O [dimethylformamide]	935.05
Cc1ccccc1Cl [2-chlorotoluene]	1067.6
C1CCOCC1 [tetrahydropyran]	868.83

q: Answer with the recorded mass density for the compound listed here: C1CCCCC1 [cyclohexane]
a: 764.45

----------
TEST_PARAMETERS: 303.15 K; 101.33 kPa; Liquid; Vibrating tube method
# mass density values compiled below
Form entry: value (kg/m3) — number only.

C1CCCCC1	769.21
CN(C)C=O [dimethylformamide]	939.83

q: Give the value of mass density reported for the following: Cc1ccccc1Cl
a: 1072.5

q: Given the molecule C1CCOCC1 [tetrahydropyran] , write its reported mass density.
a: 873.99

q: Return mass density for the following molecule: CNC=O [N-methylformamide]
a: 994.65
